Molecular target: T1, soluble mouse GPNMB (recombinant extracellular domain) (mouse, UniProt Q99P91 23-502)
T1 construct: also called moGPNMB; not shown: C-terminal polyhistidine or Avi-His tag
T1 sequence: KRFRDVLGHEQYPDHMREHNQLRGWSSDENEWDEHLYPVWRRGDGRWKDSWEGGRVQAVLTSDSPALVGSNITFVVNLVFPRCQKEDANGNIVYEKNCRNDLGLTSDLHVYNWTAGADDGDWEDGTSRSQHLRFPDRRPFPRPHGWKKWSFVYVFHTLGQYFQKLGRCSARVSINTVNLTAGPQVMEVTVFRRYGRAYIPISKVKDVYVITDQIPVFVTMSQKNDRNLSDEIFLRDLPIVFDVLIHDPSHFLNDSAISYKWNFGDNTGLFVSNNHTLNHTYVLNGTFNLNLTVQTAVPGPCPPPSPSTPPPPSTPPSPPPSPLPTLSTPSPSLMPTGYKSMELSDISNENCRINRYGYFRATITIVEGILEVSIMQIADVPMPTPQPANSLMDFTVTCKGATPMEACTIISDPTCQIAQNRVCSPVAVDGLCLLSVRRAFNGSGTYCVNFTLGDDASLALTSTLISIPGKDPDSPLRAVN
Assay: SPR Biacore, IgG captured
koff for assorted binders
Just the number in s⁻¹, nothing appended.

Some entries whose results are on file:
| binder | koff, s⁻¹ |
| --- | --- |
| anti-GPNMB antibody GPN-89 (antibody, V domains shown) VH: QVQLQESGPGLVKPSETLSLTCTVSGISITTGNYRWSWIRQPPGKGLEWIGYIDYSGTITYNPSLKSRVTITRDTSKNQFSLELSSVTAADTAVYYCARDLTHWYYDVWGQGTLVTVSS VL: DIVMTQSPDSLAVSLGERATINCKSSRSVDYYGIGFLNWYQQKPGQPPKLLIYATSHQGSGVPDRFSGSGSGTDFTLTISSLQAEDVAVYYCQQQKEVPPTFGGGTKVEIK | 0.00012 |
| anti-GPNMB antibody GPN-84 (antibody, V domains shown) VH: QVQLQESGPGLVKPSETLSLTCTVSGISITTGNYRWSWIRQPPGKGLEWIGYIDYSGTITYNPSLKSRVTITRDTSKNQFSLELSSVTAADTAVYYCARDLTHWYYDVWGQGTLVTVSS VL: DIVMTQSPDSLAVSLGERATINCKSSRSVDYYGIGFVNWYQQKPGQPPKLLIYATSIQGSGVPDRFSGSGSGTDFTLTISSLQAEDVAVYYCQQQKEVPPTFGGGTKVEIK | 0.00034 |

Now look at this one.
input: Determine its reported koff: anti-GPNMB antibody GPN-82 (antibody, V domains shown) VH: QVQLQESGPGLVKPSETLSLTCTVSGISITTGNYRWSWIRQPPGKGLEWIGYIYYSGTIIYNPSLKSRVTITRDTSKNQFSLELSSVTAADTAVYYCARDLTHWYFDVWGQGTLVTVSS VL: DIVMTQSPDSLAVSLGERATINCKSSRSVDYYGIGFLNWYQQKPGQPPKLLIYATSTQGSGVPDRFSGSGSGTDFTLTISSLQAEDVAVYYCQQQKEVPPTFGGGTKVEIK
output: 0.00039
